List of IC50 values.
target-or-test-system: Leucine aminopeptidase (Plasmodium falciparum 3D7, UniProt Q8IL11)
Sequence (Q8IL11 whole entry): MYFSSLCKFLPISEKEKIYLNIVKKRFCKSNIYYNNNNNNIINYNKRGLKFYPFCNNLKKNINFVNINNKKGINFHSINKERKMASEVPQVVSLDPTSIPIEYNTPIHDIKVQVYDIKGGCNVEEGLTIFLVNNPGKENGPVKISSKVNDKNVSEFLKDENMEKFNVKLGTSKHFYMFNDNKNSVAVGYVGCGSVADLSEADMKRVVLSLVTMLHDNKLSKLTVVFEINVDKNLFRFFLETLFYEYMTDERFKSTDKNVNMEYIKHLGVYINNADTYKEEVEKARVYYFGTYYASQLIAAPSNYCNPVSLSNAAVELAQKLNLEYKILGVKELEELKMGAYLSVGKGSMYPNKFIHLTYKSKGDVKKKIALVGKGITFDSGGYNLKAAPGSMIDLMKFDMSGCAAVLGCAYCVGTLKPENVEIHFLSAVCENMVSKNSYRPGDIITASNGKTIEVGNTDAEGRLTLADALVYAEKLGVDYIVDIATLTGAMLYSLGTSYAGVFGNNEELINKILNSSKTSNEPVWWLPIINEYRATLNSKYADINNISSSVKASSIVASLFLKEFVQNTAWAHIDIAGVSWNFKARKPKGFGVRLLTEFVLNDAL
experiment: P. falciparum M17LAP inhibitors, primary screen, biochemical, fluorogenic H-Leu-NHMec substrate, 1536-well (AID 1619)
Format: functional
The source made the active and inactive calls.

Known IC50 results, listed for orientation:
O=C(O)/C=C/C(=O)Nc1ccc(Oc2ccc(NC(=O)/C=C/C(=O)O)cc2)cc1 = 14.8 µM (active)
O=C(CSc1nc(O)cc(O)n1)Nc1ccc2c(c1)CCC2 = 2.01 µM (active)
Cc1ccc(C)c(NC(=O)C2CC(Cl)=CCC2C(=O)O)c1 (centres undefined) = 18.6 µM (active)

API: the following record is the query input.
// returns reported IC50 for input O=C(CSc1nnc[nH]1)OCN1C(=O)c2ccccc2C1=O
64.4 µM (active)

---

target-or-test-system: Zinc finger protein mex-5 (Caenorhabditis elegans, UniProt Q9XUB2)
Sequence (Q9XUB2 whole entry): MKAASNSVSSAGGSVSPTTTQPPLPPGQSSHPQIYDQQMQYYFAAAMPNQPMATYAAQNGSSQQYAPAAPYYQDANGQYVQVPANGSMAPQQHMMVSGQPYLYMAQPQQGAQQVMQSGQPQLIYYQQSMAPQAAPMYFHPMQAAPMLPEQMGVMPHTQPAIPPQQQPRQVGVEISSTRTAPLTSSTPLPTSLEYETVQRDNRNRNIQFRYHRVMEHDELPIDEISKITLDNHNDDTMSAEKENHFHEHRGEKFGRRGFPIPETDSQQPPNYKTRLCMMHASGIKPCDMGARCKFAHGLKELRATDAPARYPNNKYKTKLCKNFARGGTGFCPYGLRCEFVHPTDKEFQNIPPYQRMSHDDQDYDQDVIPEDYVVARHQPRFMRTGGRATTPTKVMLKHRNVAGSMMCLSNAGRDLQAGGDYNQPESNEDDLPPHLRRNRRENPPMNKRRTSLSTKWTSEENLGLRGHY
experiment: potency of MEX-5 RNA-binding blockers – biochemical, C. elegans, fluorescence polarization, dose response (AID 1960)
readout-type: EC50

Known EC50 results, listed for orientation:
CCCCc1ccc(NC(=O)CSC2=NN3CCCC(=O)N=C3S2)cc1 = > 300 µM (not active)
O=C(O)CCC(=O)N1N=C(c2cccs2)CC1c1cn(-c2ccccc2)nc1-c1ccccc1 (centres undefined) = > 300 µM (not active)

// returns reported EC50 for input NC(=O)c1ccccc1N/C=C/C(=O)c1ccc(F)cc1
> 300 µM (not active)

---

experiment: fluconazole-exposed Candida albicans growth modulators – fluorescence, retest, confirmation (AID 2467)
Type: functional, cell-based
Calls of active or inactive are those of the source.
readout-type: EC50

Known EC50 results, listed for orientation:
O=C(CCS(=O)(=O)Cc1ccccc1)Nc1nnc(C(F)(F)F)s1 = 0.741 µM (active)
N=C(N)N/N=C/c1ccc(OCc2ccc(Cl)cc2)cc1 = > 38 µM (not active)
COc1ccc(N(C(=O)Cn2nnc3ccccc32)C(C(=O)NC(C)(C)C)c2ccc(OC)c(O)c2)cc1 (stereo not given) = 1.62 µM (active)
CC1(C)Cc2ccccc2C(N/N=C/c2ccc([N+](=O)[O-])cc2)=N1 = > 38 µM (not active)

API: the following record is the query input.
// returns reported EC50 for input COc1ccc(-[n+]2c(-c3ccc(Br)cc3)cn3c2CCc2ccccc2-3)cc1
1.62 µM (active)

---

List of EC50 values.
System: H4
experiment: Luminescence Cell-Based Dose Response HTS to Identify Activators of 5'UTR Stem-Loop Driven Prion Protein mRNA Translation in H4 Neuroglioblastoma Cells. [Related pubchem assays: 1829 (Project Summary), 1814 (Primary HTS)]
Format: functional
assay-context: Homo sapiens
Calls of active or inactive are those of the source.

Cn1c(CN2CCOCC2)nc2cc(NC(=O)c3ccc(Cl)cc3)ccc21 = > 120 µM (not active)

// returns reported EC50 for input O=c1oc2ccccc2cc1NCc1ccccc1O
46.2 µM (active)

// returns reported EC50 for input Cc1ccc(/N=c2/sc(C)c(C)n2C)cc1
108 µM (active)

// returns reported EC50 for input CCN1C(=O)/C(=C\NC2CCCC(C)C2C)SC1=S (configuration not stated)
> 120 µM (not active)

// returns reported EC50 for input COc1cccc(NC(=O)C(=O)NCC2CCCN2S(=O)(=O)c2ccccc2)c1 (configuration not stated)
58.8 µM (active)

// returns reported EC50 for input Cc1ccc2c(c1)C(c1ccncc1)=NNC(c1ccccc1)=N2
21.2 µM (active)

// returns reported EC50 for input O=C1/C(=C/c2cccnc2)Oc2cc(OS(=O)(=O)c3ccccc3)ccc21
> 120 µM (not active)

---

target-or-test-system: Protein RecA (Mycobacterium tuberculosis)
experiment: Fluorescence Cell-Free Homogeneous Dose Retest to Identify Inhibitors of RecA-Intein Splicing Activity. [Related pubchem assays (depositor defined):AID2097, AID2223, AID489010, AID492950]
Format: functional
The source made the active and inactive calls.
readout-type: EC50

Known EC50 results, listed for orientation:
CC(=O)NCCn1c(SCC(=O)NCc2ccco2)nc2ccccc2c1=O = 9.17 µM (active)
Cc1ccc(NC2=C/C(=N/S(=O)(=O)c3cccs3)c3ccccc3C2=O)cc1 = 0.119 µM (active)
COC(=O)C1=NN(C(=O)c2cccc(Br)c2)C(O)(c2ccc(Cl)cc2)C1 (stereo unspecified) = 13.7 µM (active)

// returns reported EC50 for input COC(=O)c1ccc(NC(=O)c2nc(S(=O)(=O)Cc3cccc(C)c3)ncc2Cl)cc1
0.228 µM (active)

// returns reported EC50 for input COC(=O)C[C@]1(C(=O)OC)CN(C#N)N(c2ccc(Cl)cc2)C12c1ccccc1-c1ccccc12
1.77 µM (active)

// returns reported EC50 for input O=C(CCl)NC(=O)NC12CC3CC(CC(C3)C1)C2
5.47 µM (active)

---

List of IC50 values.
target-or-test-system: Eukaryotic translation initiation factor 4E (Mus musculus)
Sequence (P63073 whole entry): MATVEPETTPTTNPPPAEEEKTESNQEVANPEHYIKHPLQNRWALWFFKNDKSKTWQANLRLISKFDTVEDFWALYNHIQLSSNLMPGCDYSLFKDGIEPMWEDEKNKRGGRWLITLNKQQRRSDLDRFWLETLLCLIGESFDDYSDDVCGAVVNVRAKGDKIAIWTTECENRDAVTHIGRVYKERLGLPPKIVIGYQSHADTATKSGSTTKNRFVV
experiment: blockers of eIF4G binding by eIF4E – biochemical, TR-FRET, dose response (AID 855);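 also: potency for disrupting eIF4E binding to eIF4GI seen as loss of FRET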
Assay type: functional
Activity calls are given as the source filed them.

Known IC50 results, listed for orientation:
O=C(O)CSc1ccccn1 = > 64 µM (inactive)
CC(=O)Nc1ccc(C(=O)Nc2cccc(-c3cnc4ccccc4n3)c2)cc1 = 50 µM (inactive)
CC(NC(=O)CSc1nnc(CC(=O)Nc2ccc(Cl)c(Cl)c2)n1C)c1ccccc1 (centres undefined) = > 64 µM (inactive)

// returns reported IC50 for input Cc1ccc(Oc2c(C(N)=O)cc([N+](=O)[O-])cc2[N+](=O)[O-])cc1
> 64 µM (inactive)

---

Tested on: Streptococcus
experiment: GAS UMAA2166 growth inhibition – luminescence, BacTiterGlo, counter-screen for streptokinase expression inhibitor project, dose response (AID 1915);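 also: potency for reduction of bacterial viability or growth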
Type: functional, organism-based
The source made the active and inactive calls.
List of EC50 values.

Known EC50 results, listed for orientation:
COc1ccc(-c2cc(-c3ccc(C)cc3)[nH]n2)c(O)c1 = 15.8 µM (active)
CC1=NN(C(=Nc2ccc(C(C)(C)C)cc2)Nc2nnc(C)s2)[C@H](c2ccc(C)cc2)S1 = > 150 µM (not active)
Cc1ccc(O)c(NC(=S)NC(=O)c2ccc(-c3ccc(Cl)cc3)o2)c1 = 5.74 µM (active)
Oc1c(N=Nc2ccccn2)ccc2ccccc12 = 25.1 µM (active)
Brc1ccc(-c2cn3c(n2)CCc2ccc4cccnc4c2-3)cc1 = > 150 µM (not active)
O=C(N/N=C1/CCC/C1=C(/O)C(F)(F)F)c1ccccc1O = 2.75 µM (active)
O=S(=O)(Cc1cc(NCc2ccccc2)nc(-c2ccccn2)n1)c1ccccc1 = > 150 µM (not active)
COc1ccc(Nc2ncnc3scc(-c4ccc(OC)cc4)c23)cc1 = > 150 µM (not active)

API: the following record is the query input.
Value wanted: EC50 (Streptococcus) of entry O=C(Nc1cccc(-c2nnc(-c3ccccc3)o2)c1)c1ccc(Br)o1
14.2 µM (active)

---

List of AC50 values.
target-or-test-system: Heat shock protein HSP 90-alpha (Homo sapiens, UniProt P07900)
Format: functional, organism-based
Activity calls are given as the source filed them.

Known AC50 results, listed for orientation:
Cc1cccc(N2C(=O)/C(=C\c3ccc(OC(F)F)cc3)c3ccccc3C2=O)c1 = 4.43 µM (active)
COC(=O)c1ccc(NC(=O)c2nc(S(=O)(=O)Cc3cccc(C)c3)ncc2Cl)cc1 = 1.26 µM (active)
Cc1c(Cl)sn(-c2ccc(Cl)cc2)c1=O = < 0.195 µM (active)
O=[N+]([O-])c1ccc(O)c2ncccc12 = 0.996 µM (active)
CC1=CC(C)CC(C)OC(=O)CC(c2ccc(O)cc2)NC(=O)C(Cc2c(Br)[nH]c3ccccc23)N(C)C(=O)C(C)NC(=O)C(C)C1 (stereo unspecified) = 4.09 µM (active)

// returns reported AC50 for input CCCCCCCCCCCCCCCC[N+](C)(C)CCl
5.15 µM (active)

---

List of IC50 values.
target-or-test-system: Aminopeptidase N (Plasmodium falciparum FcB1/Columbia, UniProt O96935)
Sequence (O96935 whole entry): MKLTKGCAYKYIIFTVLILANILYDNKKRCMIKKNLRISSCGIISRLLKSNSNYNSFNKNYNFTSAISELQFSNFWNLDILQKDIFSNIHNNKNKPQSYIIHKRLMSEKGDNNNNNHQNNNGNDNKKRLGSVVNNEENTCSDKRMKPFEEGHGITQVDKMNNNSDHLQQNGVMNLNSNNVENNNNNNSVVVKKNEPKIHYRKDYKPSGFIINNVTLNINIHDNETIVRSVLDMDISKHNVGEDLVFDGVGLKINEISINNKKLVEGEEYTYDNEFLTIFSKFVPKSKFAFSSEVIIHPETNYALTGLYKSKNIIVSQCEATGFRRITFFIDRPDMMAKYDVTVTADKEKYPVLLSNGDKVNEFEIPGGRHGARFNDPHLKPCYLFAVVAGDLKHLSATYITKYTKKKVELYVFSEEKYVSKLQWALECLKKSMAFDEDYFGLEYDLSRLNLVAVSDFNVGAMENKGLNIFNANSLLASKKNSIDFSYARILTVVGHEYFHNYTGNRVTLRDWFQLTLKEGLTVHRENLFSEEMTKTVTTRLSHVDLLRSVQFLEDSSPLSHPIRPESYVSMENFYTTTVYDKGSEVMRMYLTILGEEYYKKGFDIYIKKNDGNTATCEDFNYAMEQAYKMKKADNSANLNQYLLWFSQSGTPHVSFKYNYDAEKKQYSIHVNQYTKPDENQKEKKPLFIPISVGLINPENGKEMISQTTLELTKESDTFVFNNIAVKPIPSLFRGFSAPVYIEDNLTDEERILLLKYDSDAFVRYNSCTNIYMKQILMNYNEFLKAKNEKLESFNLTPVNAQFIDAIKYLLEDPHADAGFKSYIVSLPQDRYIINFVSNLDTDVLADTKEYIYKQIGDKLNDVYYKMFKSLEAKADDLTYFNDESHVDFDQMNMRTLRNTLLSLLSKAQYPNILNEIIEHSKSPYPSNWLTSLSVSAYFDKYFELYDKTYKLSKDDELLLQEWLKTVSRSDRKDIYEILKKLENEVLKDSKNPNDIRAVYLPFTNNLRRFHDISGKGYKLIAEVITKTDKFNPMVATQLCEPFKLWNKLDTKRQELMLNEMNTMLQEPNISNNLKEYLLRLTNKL
experiment: malaria alanyl aminopeptidase activity blockers – biochemical, fluorogenic H-Leu-NHMec substrate, 1536-well (AID 1445)
Parameters: species or system Plasmodium falciparum 3D7, 3D7
Activity calls are given as the source filed them.

NS(=O)(=O)c1ccc(CCNC(=O)COC(=O)CCSc2ccc(Cl)cc2)cc1 = 46.8 µM (active)
CCOC(=O)C1=C(Nc2ccc(OC)cc2)S/C(=C\c2ccc(OCC(=O)O)c(OC)c2)C1=O = 87.3 µM (active)
CCCCc1cc(=O)oc2cc(C)cc(OCc3nn[nH]n3)c12 = 63.6 µM (active)
O=C(NN1C(=O)/C(=C/c2ccc(O)c([N+](=O)[O-])c2)SC1=S)c1ccccc1Cl = 71.1 µM (active)

API: the following record is the query input.
// returns reported IC50 for input COc1ccc(/C=C/C(=O)NC(=S)Nc2ccc(C(=O)O)cc2)cc1
53 µM (active)

The origin of these recorded values is ChEMBL document CHEMBL1201862.
